Quick reference: Mean % compound remaining at 2 hrs, 37° C. of the listed items.
test: Stability of steroid C-21 esters, carbonates and carbamates in rat lung homogenate
applied.conditions: Inactive (heat-inactivated) rat lung homogenate; 900 nM; n=3
parameter.measured: Mean % compound remaining at 2 hrs, 37° C. (%)

compound="CN1CCC[C@H]1C(=O)OCC(=O)[C@@]12O[C@H](C3CCCCC3)O[C@@H]1C[C@H]1[C@@H]3CCC4=CC(=O)C=C[C@]4(C)[C@H]3[C@@H](O)C[C@@]12C [Example 38]" unit_string=% data_value=40
compound="CC(C)[C@@H](C(=O)OCC(=O)[C@@]12O[C@H](C3CCCCC3)O[C@@H]1C[C@H]1[C@@H]3CCC4=CC(=O)C=C[C@]4(C)[C@H]3[C@@H](O)C[C@@]12C)N(C)C [Example 79]" unit_string=% data_value=61
compound="C[C@]12C=CC(=O)C=C1CC[C@@H]1[C@@H]2[C@@H](O)C[C@@]2(C)[C@H]1C[C@H]1O[C@@H](C3CCCCC3)O[C@]12C(=O)CO [des-ciclesonide, desisobutyryl ciclesonide, reference compound]" unit_string=% data_value=71
compound="CCN(CC)Cc1ccc(C(=O)OCC(=O)[C@@]23O[C@H](C4CCCCC4)O[C@@H]2C[C@H]2[C@@H]4CCC5=CC(=O)C=C[C@]5(C)[C@H]4[C@@H](O)C[C@@]23C)cc1 [Example 30]" unit_string=% data_value=51

* * *

test: Stability of steroid C-21 esters, carbonates and carbamates in rat lung homogenate
applied.conditions: Active rat lung homogenate; 900 nM; n=3
Quick reference: Mean % compound remaining at 2 hrs, 37° C. of the listed items.
parameter.measured: Mean % compound remaining at 2 hrs, 37° C. (%)

molecule="CC(C)[C@@H](NC(=O)c1cccnc1)C(=O)OCC(=O)[C@@]12O[C@H](C3CCCCC3)O[C@@H]1C[C@H]1[C@@H]3CCC4=CC(=O)C=C[C@]4(C)[C@H]3[C@@H](O)C[C@@]12C [Example 51]" unit_string=% data_value=86
molecule="CN1CCN(C(=O)OCC(=O)[C@@]23O[C@H](C4CCCCC4)O[C@@H]2C[C@H]2[C@@H]4CCC5=CC(=O)C=C[C@]5(C)[C@H]4[C@@H](O)C[C@@]23C)CC1 [Example 41]" unit_string=% data_value=68
molecule="C[C@]12C=CC(=O)C=C1CC[C@@H]1[C@@H]2[C@@H](O)C[C@@]2(C)[C@H]1C[C@H]1O[C@@H](C3CCCCC3)O[C@]12C(=O)COC(=O)/C=C/c1cccnc1 [Example 33]" unit_string=% data_value=3
molecule="CC(C)C(=O)OCC(=O)[C@@]12O[C@H](C3CCCCC3)O[C@@H]1C[C@H]1[C@@H]3CCC4=CC(=O)C=C[C@]4(C)[C@H]3[C@@H](O)C[C@@]12C [Ciclesonide, ciclesonide]" unit_string=% data_value=12
molecule="CCN(CC)CC(=O)OCC(=O)[C@@]12O[C@H](C3CCCCC3)O[C@@H]1C[C@H]1[C@@H]3CCC4=CC(=O)C=C[C@]4(C)[C@H]3[C@@H](O)C[C@@]12C [Example 32]" unit_string=% data_value=1

* * *

test: Stability of steroid C-21 esters, carbonates and carbamates in rat lung homogenate
applied.conditions: Active homogenate; parent compound
# strict inequality: Mean [Parent] (nM) at 2 hrs, 37° C. < 100 nM yields 1 (yes), everything else yields 0 (no)

compound="CC(CN(C)C)OC(=O)OCC(=O)[C@@]12O[C@H](C3CCCCC3)O[C@@H]1C[C@H]1[C@@H]3CCC4=CC(=O)C=C[C@]4(C)[C@H]3[C@@H](O)C[C@@]12C (stereo partly drawn)" assigned_class="0 (no)"
compound=C[C@]12C=CC(=O)C=C1CC[C@@H]1[C@@H]2[C@@H](O)C[C@@]2(C)[C@H]1C[C@H]1O[C@@H](C3CCCCC3)O[C@]12C(=O)COC(=O)CCc1cccnc1 assigned_class="1 (yes)"
compound=CN1CCN(C(=O)OCC(=O)[C@@]23O[C@H](C4CCCCC4)O[C@@H]2C[C@H]2[C@@H]4CCC5=CC(=O)C=C[C@]5(C)[C@H]4[C@@H](O)C[C@@]23C)CC1 assigned_class="0 (no)"
compound=CN1CCC[C@H]1C(=O)OCC(=O)[C@@]12O[C@H](C3CCCCC3)O[C@@H]1C[C@H]1[C@@H]3CCC4=CC(=O)C=C[C@]4(C)[C@H]3[C@@H](O)C[C@@]12C assigned_class="1 (yes)"
compound="C[C@]12C=CC(=O)C=C1CC[C@@H]1[C@@H]2[C@@H](O)C[C@@]2(C)[C@H]1C[C@H]1O[C@@H](C3CCCCC3)O[C@]12C(=O)CO [des-ciclesonide, desisobutyryl ciclesonide, reference compound]" assigned_class="0 (no)"
compound=CN(C)CCN(C)C(=O)OCC(=O)[C@@]12O[C@H](C3CCCCC3)O[C@@H]1C[C@H]1[C@@H]3CCC4=CC(=O)C=C[C@]4(C)[C@H]3[C@@H](O)C[C@@]12C assigned_class="0 (no)"
compound=CC(C)[C@@H](C(=O)OCC(=O)[C@@]12O[C@H](C3CCCCC3)O[C@@H]1C[C@H]1[C@@H]3CCC4=CC(=O)C=C[C@]4(C)[C@H]3[C@@H](O)C[C@@]12C)N(C)C assigned_class="0 (no)"
compound=CC(C)[C@@H](NC(=O)c1cccnc1)C(=O)OCC(=O)[C@@]12O[C@H](C3CCCCC3)O[C@@H]1C[C@H]1[C@@H]3CCC4=CC(=O)C=C[C@]4(C)[C@H]3[C@@H](O)C[C@@]12C assigned_class="0 (no)"
compound=C[C@]12C=CC(=O)C=C1CC[C@@H]1[C@@H]2[C@@H](O)C[C@@]2(C)[C@H]1C[C@H]1O[C@@H](C3CCCCC3)O[C@]12C(=O)COC(=O)/C=C/c1cccnc1 assigned_class="1 (yes)"

* * *

test: Stability of steroid C-21 esters, carbonates and carbamates in rat lung homogenate
applied.conditions: Inactive homogenate; parent compound
Quick reference: Mean [Parent] (nM) at 2 hrs, 37° C. of the listed items.
parameter.measured: Mean [Parent] (nM) at 2 hrs, 37° C.

compound="CC(C)C(=O)OCC(=O)[C@@]12O[C@H](C3CCCCC3)O[C@@H]1C[C@H]1[C@@H]3CCC4=CC(=O)C=C[C@]4(C)[C@H]3[C@@H](O)C[C@@]12C [Ciclesonide, ciclesonide]" parameter_measured="Mean [Parent] (nM) at 2 hrs, 37° C." data_value=154
compound=C[C@]12C=CC(=O)C=C1CC[C@@H]1[C@@H]2[C@@H](O)C[C@@]2(C)[C@H]1C[C@H]1O[C@@H](C3CCCCC3)O[C@]12C(=O)COC(=O)c1cccnc1 parameter_measured="Mean [Parent] (nM) at 2 hrs, 37° C." data_value=130
compound="CC(CN(C)C)OC(=O)OCC(=O)[C@@]12O[C@H](C3CCCCC3)O[C@@H]1C[C@H]1[C@@H]3CCC4=CC(=O)C=C[C@]4(C)[C@H]3[C@@H](O)C[C@@]12C (some centres unmarked)" parameter_measured="Mean [Parent] (nM) at 2 hrs, 37° C." data_value=147
compound=C[C@]12C=CC(=O)C=C1CC[C@@H]1[C@@H]2[C@@H](O)C[C@@]2(C)[C@H]1C[C@H]1O[C@@H](C3CCCCC3)O[C@]12C(=O)COC(=O)CCc1cccnc1 parameter_measured="Mean [Parent] (nM) at 2 hrs, 37° C." data_value=159
compound=CCN(CC)CC(=O)OCC(=O)[C@@]12O[C@H](C3CCCCC3)O[C@@H]1C[C@H]1[C@@H]3CCC4=CC(=O)C=C[C@]4(C)[C@H]3[C@@H](O)C[C@@]12C parameter_measured="Mean [Parent] (nM) at 2 hrs, 37° C." data_value=119

* * *

test: Stability of steroid C-21 esters, carbonates and carbamates in rat lung homogenate
applied.conditions: Inactive (heat-inactivated) rat lung homogenate; 900 nM; n=3
# strict inequality: Mean % compound remaining at 2 hrs, 37° C. < 80% yields yes (1), everything else yields no (0)

compound="CC(C)[C@@H](NC(=O)c1cccnc1)C(=O)OCC(=O)[C@@]12O[C@H](C3CCCCC3)O[C@@H]1C[C@H]1[C@@H]3CCC4=CC(=O)C=C[C@]4(C)[C@H]3[C@@H](O)C[C@@]12C [Example 51]" assigned_class="no (0)"
compound="CN(C)CC(=O)OCC(=O)[C@@]12O[C@H](C3CCCCC3)O[C@@H]1C[C@H]1[C@@H]3CCC4=CC(=O)C=C[C@]4(C)[C@H]3[C@@H](O)C[C@@]12C [Example 75]" assigned_class="yes (1)"
compound="C[C@]12C=CC(=O)C=C1CC[C@@H]1[C@@H]2[C@@H](O)C[C@@]2(C)[C@H]1C[C@H]1O[C@@H](C3CCCCC3)O[C@]12C(=O)COC(=O)c1cccnc1 [Example 29]" assigned_class="yes (1)"
compound="CCN(CC)CC(=O)OCC(=O)[C@@]12O[C@H](C3CCCCC3)O[C@@H]1C[C@H]1[C@@H]3CCC4=CC(=O)C=C[C@]4(C)[C@H]3[C@@H](O)C[C@@]12C [Example 32]" assigned_class="yes (1)"
compound="CC(CN(C)C)OC(=O)OCC(=O)[C@@]12O[C@H](C3CCCCC3)O[C@@H]1C[C@H]1[C@@H]3CCC4=CC(=O)C=C[C@]4(C)[C@H]3[C@@H](O)C[C@@]12C (stereo partly drawn) [Example 28]" assigned_class="yes (1)"
compound="CCN(CC)Cc1cccc(C(=O)OCC(=O)[C@@]23O[C@H](C4CCCCC4)O[C@@H]2C[C@H]2[C@@H]4CCC5=CC(=O)C=C[C@]5(C)[C@H]4[C@@H](O)C[C@@]23C)c1 [Example 31]" assigned_class="yes (1)"

Just for reference, patent US20090318396A1 is where these values come from.
